# tgt: human CysLT2 receptor (Homo sapiens)
# Construct: expressed in transfected cells; host or cells: CHO K1 (ATCC) constitutively expressing aequorin
# Sequence (Q9NS75 whole entry): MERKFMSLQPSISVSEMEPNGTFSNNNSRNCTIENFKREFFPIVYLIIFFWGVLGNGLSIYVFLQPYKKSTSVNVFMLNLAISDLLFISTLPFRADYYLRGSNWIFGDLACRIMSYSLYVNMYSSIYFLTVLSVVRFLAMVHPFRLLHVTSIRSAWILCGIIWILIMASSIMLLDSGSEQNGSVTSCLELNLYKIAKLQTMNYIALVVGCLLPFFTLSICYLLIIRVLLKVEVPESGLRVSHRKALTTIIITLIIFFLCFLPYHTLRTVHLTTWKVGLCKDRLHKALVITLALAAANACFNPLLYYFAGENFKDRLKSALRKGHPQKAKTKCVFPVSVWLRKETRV
# assay.procedure: Cellular in vitro test to determine the CysLT2 activity (aequorin luminescence, LTD4 stimulation)
# Assay type: cell-based
# protocol.conditions: CHO K1 cells with aequorin and human CysLT2 receptor; agonist LTD4 3×10^−8 M
quantity.measured: IC50

> print(dat)
                                   molecule  value.reported
1  O=C(O)c1ccc(OCCCc2ccc(OCCCCOc3ccccc3)cc2)c(C(=O)NC2CCCC(C(=O)O)C2)c1 (racemic)           35 nM
2  O=C(O)c1ccc(OCCCc2ccc(OCCCC3CCCCC3)cc2)c(C(=O)N2CCC(C(=O)O)CC2)c1           14 nM
3  O=C(O)c1ccc(OCCCc2ccc(OCCCC3CCCCC3)cc2)c(C(=O)NC2CCCC(C(=O)O)C2)c1 (stereo not shown)            5 nM

Next molecule, IC50 to be filled in.
Req: Form field: reported IC50 of CC(C)Oc1ccc(COc2ccc(CCCOc3ccc(C(=O)O)cc3C(=O)NC3CCCC(C(=O)O)C3)cc2)cc1 (stereo not shown)
Resp: 15 nM
